assay: Toxicity in male ICR mouse assessed as mortality at 100 mg/kg, iv administered as single dose measured daily for 7 days (reference value: 0%); type: organism-based; conditions: in vivo
Value Kind: mortality at 168 h (%)
One number for each entry, in %.

QUERY: Need mortality at 168 h, item Oc1ccc(-c2cc(-c3ccccc3Cl)nc3c2Cc2c(O)cccc2-3)cc1
RESULT: 0

* * *

molecular target: DNA topoisomerase 2-alpha (Homo sapiens); assay: Inhibition of recombinant human topoisomerase 2alpha-mediated relaxation of supercoiled pBR322 DNA at 100 uM measured after 30 mins by ethidium bromide staining based agarose gel electrophoresis relative to control
Value Kind: inhibition (%)
Answers are plain numbers, in %.

Study these solved cases before continuing.
| Entry Smiles | Unit Abbreviation | Quantitative Result |
| --- | --- | --- |
| Oc1cccc(-c2cc(-c3ccc(Cl)cc3)nc3c2Cc2ccc(O)cc2-3)c1 | % | 87.8 |
| Oc1cccc(-c2cc(-c3cccc(Cl)c3)nc3c2Cc2ccc(O)cc2-3)c1 | % | 90.5 |
| Oc1ccccc1-c1cc(-c2ccc(Cl)cc2)nc2c1Cc1c(O)cccc1-2 | % | 80.3 |
| Oc1ccccc1-c1cc(-c2cccc(Cl)c2)c2c(n1)-c1c(O)cccc1C2 | % | 74.5 |
| Oc1cccc(-c2cc(-c3cccc(Cl)c3)c3c(n2)-c2cc(O)ccc2C3)c1 | % | 76.3 |
| Oc1cccc(-c2cc(-c3ccccc3Cl)c3c(n2)-c2cccc(O)c2C3)c1 | % | 67.5 |

Batch lookup, inhibition per entry.
1. Oc1cccc(-c2cc(-c3cccc(C(F)(F)F)c3)nc3c2Cc2c(O)cccc2-3)c1
2. Oc1ccccc1-c1cc(-c2cccc(F)c2)nc2c1Cc1c(O)cccc1-2
3. Oc1ccc2c(c1)-c1nc(-c3cccc(F)c3)cc(-c3ccccc3O)c1C2
4. Oc1ccc(-c2cc(-c3ccccc3C(F)(F)F)nc3c2Cc2c(O)cccc2-3)cc1

RESULT:
1: 67.3; 2: 80.7; 3: 28.3; 4: 30.1
